Please find below Ki data on 5-hydroxytryptamine receptor 1A (Homo sapiens) compiled from the literature.
Sequence (P08908 whole entry): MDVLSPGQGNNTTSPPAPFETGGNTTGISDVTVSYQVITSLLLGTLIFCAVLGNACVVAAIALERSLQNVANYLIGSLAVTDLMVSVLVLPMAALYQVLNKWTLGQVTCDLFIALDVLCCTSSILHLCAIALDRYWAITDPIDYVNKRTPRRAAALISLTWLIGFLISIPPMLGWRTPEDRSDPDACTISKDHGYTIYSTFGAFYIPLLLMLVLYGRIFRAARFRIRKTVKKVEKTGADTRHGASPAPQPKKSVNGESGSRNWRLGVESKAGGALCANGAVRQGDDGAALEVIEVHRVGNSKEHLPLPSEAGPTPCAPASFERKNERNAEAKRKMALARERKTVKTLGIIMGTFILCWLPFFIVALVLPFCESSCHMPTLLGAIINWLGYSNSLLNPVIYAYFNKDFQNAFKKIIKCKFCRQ
Dear colleague, please return just the value in nM, with no unit written.

Please review the entries below; each comes with its answer.
>>> observedresult("O[C@@H]1[C@H](CNCCOc2ccccc2)CCC1(c1ccccc1)c1ccccc1 (relative stereo)")
9.33
>>> observedresult("FC(F)(F)c1ccc(OC(CCN2CCN(c3ncccn3)CC2)c2ccccc2)cc1 (stereo not given)")
1580
>>> observedresult("Cc1cc(OCCCN2CCN(c3cccc(Cl)c3Cl)CC2)c2c(C)cc(=O)oc2c1")
4
>>> observedresult("Fc1ccc2[nH]cc(CCCN3CCN(c4nsc5ccccc45)CC3)c2c1")
1.6

Shifting focus to the compound that follows.
Ask | Find the recorded Ki belonging to O=C(CCCCN1CCC(c2noc3cc(F)ccc23)CC1)c1cc2c3c(c1)CCN3C(=O)CC2 and report it.
Reply | 8.6
